src = patent US20260166158A1

# System: NCI-H460 tumor-bearing mice (lung cancer)
# protocol description: Biodistribution: lutetium accumulation in tumor, plasma and healthy tissues by ICP-MS
# Assay type: in vivo
# settings: 24 h
# Protocol: Lutetium accumulation was measured in tumor, plasma and healthy tissues of NCI-H460 tumor-bearing mice (lung cancer). NCJ-H460 tumor bearing mice were dosed with 0.5 mg/kg of lutetium conjugates. At the time points indicated, mice were sacrificed and tumor, liver, kidneys and plasma were taken. All tissues were analyzed for lutetium content by ICP-MS, and lutetium uptake in % ID/g determined by the following equation: […]

compound string | T/K (Tumor/Kidney ratio)
CCNC(=O)c1nnc(-c2cc(C(C)C)c(O)cc2O)n1-c1ccc(OC2CCN(C(=O)CCOCCOCCOCCOCCNC(=O)[C@H](CCCCNC(=O)CCCc3ccc(I)cc3)NC(=O)CN3CCN4CCN5CCN(CC3)CC(=O)[O][Lu]([O]C(=O)C4)[O]C(=O)C5)CC2)cc1 | 5.48
CCNC(=O)c1nnc(-c2cc(C(C)C)c(O)cc2O)n1-c1ccc(CC2CCN(C(=O)CCOCCOCCOCCOCCOCCOCCOCCOCCOCCOCCOCCOCCNC(=O)[C@H](CCCCNC(=O)CCCc3ccc(I)cc3)NC(=O)CN3CCN4CCN5CCN(CC3)CC(=O)[O][Lu]([O]C(=O)C4)[O]C(=O)C5)CC2)cc1 | 3.38
CCNC(=O)c1nnc(-c2cc(C(C)C)c(O)cc2O)n1-c1ccc(C2CN(C(=O)CCOCCOCCOCCOCCOCCOCCOCCOCCOCCOCCOCCOCCNC(=O)CN3CCN4CCN5CCN(CC3)CC(=O)[O][Lu]([O]C(=O)C4)[O]C(=O)C5)C2)cc1 | 2.15
CCNC(=O)c1nnc(-c2cc(C(C)C)c(O)cc2O)n1-c1ccc(C2CCN(C(=O)CCOCCOCCOCCOCCNC(=O)CN3CCN4CCN5CCN(CC3)CC(=O)[O][Lu]([O]C(=O)C4)[O]C(=O)C5)CC2)cc1 | 2.57
CCNC(=O)c1nnc(-c2cc(C(C)C)c(O)cc2O)n1-c1ccc(OC2CCN(C(=O)CCNC(=O)[C@@H](CCC(=O)N3CCC(Oc4ccc(-n5c(C(=O)NCC)nnc5-c5cc(C(C)C)c(O)cc5O)cc4)CC3)NC(=O)CCOCCOCCOCCOCCNC(=O)CN3CCN4CCN5CCN(CC3)CC(=O)[O][Lu]([O]C(=O)C4)[O]C(=O)C5)CC2)cc1 | 0.74
CCNC(=O)c1nnc(-c2cc(C(C)C)c(O)cc2O)n1-c1ccc(CC2CCN(C(=O)CCC(=O)N[C@@H](CCCCNC(=O)CN3CCN4CCN5CCN(CC3)CC(=O)[O][Lu]([O]C(=O)C4)[O]C(=O)C5)C(=O)N3CCC(Cc4ccc(-n5c(C(=O)NCC)nnc5-c5cc(C(C)C)c(O)cc5O)cc4)CC3)CC2)cc1 | 2.58
CCNC(=O)c1nnc(-c2cc(C(C)C)c(O)cc2O)n1-c1ccc(CC2CCN(C(=O)C[C@H](NC(=O)CN3CCN4CCN5CCN(CC3)CC(=O)[O][Lu]([O]C(=O)C4)[O]C(=O)C5)C(=O)N[C@H](C)C(=O)N3CCC(Cc4ccc(-n5c(C(=O)NCC)nnc5-c5cc(C(C)C)c(O)cc5O)cc4)CC3)CC2)cc1 | 1.13

---

# Test system: NCI-H460 tumor-bearing mice (lung cancer)
# protocol description: Biodistribution: lutetium accumulation in tumor, plasma and healthy tissues by ICP-MS
# Assay type: in vivo
# settings: second table; kidney; 24 h
# Procedure: Lutetium accumulation was measured in tumor, plasma and healthy tissues of NCI-H460 tumor-bearing mice (lung cancer). NCJ-H460 tumor bearing mice were dosed with 0.5 mg/kg of lutetium conjugates. At the time points indicated, mice were sacrificed and tumor, liver, kidneys and plasma were taken. All tissues were analyzed for lutetium content by ICP-MS, and lutetium uptake in % ID/g determined by the following equation: […]

molecule | system name | Kidney uptake, % ID/g 24 h (% ID/g)
CCNC(=O)c1nnc(-c2cc(C(C)C)c(O)cc2O)n1-c1ccc(OC2CCN(C(=O)CCOCCOCCOCCOCCNC(=O)CC[C@@H](C(=O)O)N(CC)CCN3CCN4CCN(C)CC(=O)[O][Lu]([O]C(=O)C4)[O]C(=O)C3)CC2)cc1 | NCI-H460 tumor-bearing mice (lung cancer) | 0.438
CCNC(=O)c1nnc(-c2cc(C(C)C)c(O)cc2O)n1-c1ccc(CC2CCN(C(=O)CCOCCOCCOCCOCCOCCOCCOCCOCCOCCOCCOCCOCCNC(=O)CN3CCN4CCN5CCN(CC3)CC(=O)[O][Lu]([O]C(=O)C4)[O]C(=O)C5)CC2)cc1 | NCI-H460 tumor-bearing mice (lung cancer) | 1.12
CC(C)c1cc(-c2nnc(O)n2-c2ccc(OC3CCN(C(=O)CCOCCOCCOCCOCCOCCOCCOCCOCCOCCOCCOCCOCCNC(=O)CN4CCN5CCN6CCN(CC4)CC(=O)[O][Lu]([O]C(=O)C5)[O]C(=O)C6)CC3)cc2)c(O)cc1O | NCI-H460 tumor-bearing mice (lung cancer) | 0.26
CCNC(=O)c1nnc(-c2cc(C(C)C)c(O)cc2O)n1-c1ccc(CN2CCN(C(=O)CCNC(=O)[C@@H](CCC(=O)O)NC(=O)[C@@H](CCC(=O)O)NC(=O)[C@@H](CCC(=O)O)NC(=O)COCCOCCNC(=O)CCCCn3cc(CN(CCCNC(=O)CC[C@H](C(=O)O)N4CCN5CCN6CC(=O)[O][Lu]([O]C(=O)C5)[C]5(C6)OC(=O)CN5CC4)C(=O)CCCNC(=O)CCCc4ccc(I)cc4)nn3)CC2)cc1 (stereo partly shown) | NCI-H460 tumor-bearing mice (lung cancer) | 10.37
